System: 192522-019-R-J2-PDC complex tumor spheroid viability;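 further: spheroids exposed to drugs for seven days before reading; 100% = DMSO vehicle control viability in luminescence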
Assay: Anticancer human tumor 192522-019-R-J2-PDC patient-derived colon adenocarcinoma cell line growth inhibition [POLQ]
Conditions: second compound 10 µM; first compound 1 µM; stronger effect = lower value
Protocol: Multicellular complex tumor spheroid response to Polymerase (POL) inhibitors (novobiocin, ART-558, RP6685) in combination with a variety of drugs and investigational agents in selected tumor cell lines The POL inhibitors (novobiocin, ART-558, and RP6685) were evaluated both individually and in combination with standard of care and investigational anticancer small molecules within a complex spheroid model of solid tumors. . […]
Threshold-based label: viability, T/C under 40% gives class 1, viability, T/C not under 40% gives class 0.

Reference set, count: 3
{"columns": ["compound", "category-label"],
 "data": [
  ["CC1COCCN1c1cc(C2(O)CC3CCC(C2)O3)c2cnn(-c3ccn[nH]3)c2n1 (stereo not given) + COC1C(OC(N)=O)C(O)C(Oc2ccc3c(O)c(NC(=O)c4ccc(O)c(CC=C(C)C)c4)c(=O)oc3c2C)OC1(C)C", "class 1"],
  ["C#Cc1c(F)ccc2cc(O)cc(-c3ncc4c(N5CC6CCC(C5)N6)nc(OCC56CCCN5CC(F)C6)nc4c3F)c12 (stereo not given) + COC1C(OC(N)=O)C(O)C(Oc2ccc3c(O)c(NC(=O)c4ccc(O)c(CC=C(C)C)c4)c(=O)oc3c2C)OC1(C)C", "class 0"],
  ["O=c1[nH]cc(F)c(=O)[nH]1 + Cc1cccc(N(C)C(=O)C2C(O)CCN2c2nc(C)cc(C(F)(F)F)c2C#N)c1", "class 0"]
]}

Would you kindly verify if viability, T/C of CCc1c2c(nc3ccc(O)cc13)-c1cc3c(c(=O)n1C2)COC(=O)[C@]3(O)CC + COC1C(OC(N)=O)C(O)C(Oc2ccc3c(O)c(NC(=O)c4ccc(O)c(CC=C(C)C)c4)c(=O)oc3c2C)OC1(C)C is strictly less than 40%? class 1

Would you kindly verify if viability, T/C of CCc1c2c(nc3ccc(O)cc13)-c1cc3c(c(=O)n1C2)COC(=O)[C@]3(O)CC + Cc1cccc(N(C)C(=O)C2C(O)CCN2c2nc(C)cc(C(F)(F)F)c2C#N)c1 is strictly less than 40%? class 1
